system: fasted rats; assay: Glucose tolerance test using fasted rats; type: in vivo, Male Wistar rats; conditions: Rattus norvegicus, 0.5 h; dose 10 mg/kg oral, 30 min before glucose loading (1 g/kg i.p.); inhibition of increase in blood glucose relative to control at 30 min; read-out: ratio of decrease at 30 min later(%)
Would you mind telling me the reported inhibition in vivo at 10 mg/kg of each entry?
Number only, in %; omit the unit.

inhibition in vivo at 10 mg/kg of `O=C(O)CCC(=O)c1ccc(-c2ccccc2)cc1` on fasted rats?
20.7

Quick check: inhibition in vivo at 10 mg/kg on fasted rats, item O=C1CC(C(=O)c2ccccc2)CO1 (racemic) [Example 81, (±)-4-benzoyldihydro-2(3H)-furanone] ?
20.7

Recorded inhibition in vivo at 10 mg/kg for `O=C(O)CCC(=O)c1ccc(CO)cc1` with fasted rats, please?
25.2

I'm curious: which inhibition in vivo at 10 mg/kg was measured for `O=C(O)CCC(=O)C1CCCCC1` tested on fasted rats?
26.1

What is its inhibition in vivo at 10 mg/kg for fasted rats? Entry: `CC(=O)NCC(=O)c1ccccc1`
12.4

What is its inhibition in vivo at 10 mg/kg for fasted rats? Entry: `O=C(O)CCC(=O)c1ccc2ccccc2c1`
21.5

Kindly state the measured inhibition in vivo at 10 mg/kg obtained for `C[C@H]1CC[C@H](C(=O)CCC(=O)O)CC1` with fasted rats.
31.7

Observed inhibition in vivo at 10 mg/kg on fasted rats for `O=C(O)CCC(=O)c1ccccc1` , please.
19.8

Which measured inhibition in vivo at 10 mg/kg belongs to `O=C(CC(C(=O)O)C(=O)O)c1ccc(-c2ccccc2)cc1` , tested on fasted rats?
24.6

====

Exercise: for every item that follows, state its recorded inhibition in vivo at 30 mg/kg.
tested on: fasted rats; experiment: Glucose tolerance test using fasted rats; type: in vivo, Male Wistar rats; conditions: Rattus norvegicus, 2 h; dose 30 mg/kg oral, 30 min before glucose loading (1 g/kg i.p.); blood glucose after 120 min, ratio of changes relative to control; read-out: ratio of decrease at 120 min later(%)
Quick reminder: number only, in %, skip the unit.

Fill blank: measured inhibition in vivo at 30 mg/kg of the compound CC(=O)CCC(=O)c1ccccc1 [Example 1, 1-phenyl-1,4-pentanedione] is ____.
4.1

Entry under review: C[C@H]1CC[C@H](C(=O)CCC(=O)O)CC1 [Example 65] . Reported inhibition in vivo at 30 mg/kg?
10.5

Which measured inhibition in vivo at 30 mg/kg value corresponds to O=C(O)CCC(=O)c1ccc(-c2ccccc2)cc1 [Example 47, 4-(4-biphenylyl)-4-oxobutanoic acid] ?
6.8

GET /values?readout=inhibition in vivo at 30 mg/kg&item= CC1(C(=O)CCC(=O)O)CCCCC1 [Example 61]
-5.7

Query: inhibition in vivo at 30 mg/kg; subject: CC(=O)CCC(=O)c1ccc(CO)cc1 [Example 20]
10.7

Value lookup for inhibition in vivo at 30 mg/kg; key = O=C(O)CCC(=O)C1CCCCC1 [Example 58, 4-cyclohexyl-4-oxobutanoic acid]
-2.8

The reported numbers originate from patent EP0885869A1.
